Target: Recombinant full-length human IDO1 (Homo sapiens, UniProt P14902)
Construct: Recombinant full-length human IDO1 with a N-terminal hexahistidine tag; hexahistidine (His6) (N); made in house; host or cells: E. coli
Sequence (P14902 whole entry): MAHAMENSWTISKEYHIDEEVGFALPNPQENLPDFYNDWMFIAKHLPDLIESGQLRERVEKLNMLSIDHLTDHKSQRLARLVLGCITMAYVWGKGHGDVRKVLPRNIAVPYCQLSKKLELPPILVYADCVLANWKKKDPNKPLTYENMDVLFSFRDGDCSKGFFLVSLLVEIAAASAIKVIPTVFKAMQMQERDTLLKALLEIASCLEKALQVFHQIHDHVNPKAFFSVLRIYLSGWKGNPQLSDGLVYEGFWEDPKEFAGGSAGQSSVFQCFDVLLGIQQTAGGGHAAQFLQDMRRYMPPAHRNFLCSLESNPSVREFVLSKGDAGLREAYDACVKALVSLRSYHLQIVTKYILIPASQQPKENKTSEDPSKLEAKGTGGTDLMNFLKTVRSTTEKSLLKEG
Test: IDO1 enzymatic assay (NFK quantified by LCMS)
Assay type: biochemical
Details: 2 nM enzyme, 5 μM L-tryptophan, pH6.5, 30 minutes pre-incubation at RT; mean values when measured multiple times; read-out: hIDO activity (IC50 in nM)
ATTRIBUTE MEASURED: IC50 (nM)

Guide cases for IC50, answers given:
1. O=S(=O)(c1ccc(-n2cc(C(O)c3c(C4CC4)sc4cncn34)nn2)cc1)N1CCCC1 (racemic) [Example 237] ... 155
2. OC(c1cn(-c2ccncc2)nn1)c1c(C2CC2)sc2cncn12 (racemic) [Example 30] ... 63.2
3. COc1cc(-n2cc(C(O)c3c(C4CC4)sc4cncn34)nn2)c(OC)nn1 (racemic) [Example 86] ... 23.1
4. CCc1sc2cncn2c1C(O)c1cn(-c2ccc(NC(=O)OC(C)(C)C)cc2)nn1 (racemic) [Example 234] ... 36.7
5. COc1ccc(-n2nnc(C(O)c3c(C)sc4cncn34)c2C)cc1 (racemic) [Example 255] ... 14.2

A = O[C@@H](c1cn(-c2ccccc2)nn1)c1c(C2CC2)sc2cncn12 [Example 2a]
B = CCc1sc2cncn2c1C(O)c1cn(-c2ccc(NC(=O)OC(C)(C)C)cc2F)nn1 (racemic) [Example 245]
query: Lab notebook, comparison: A versus B , higher IC50 goes to which? Mark your selection by writing its label.
result: B

A = Cc1sc2cncn2c1C(O)c1cnn(-c2ccccc2)c1C (racemic) [Example 98]
B = O[C@@H](c1cn(-c2ccc(OCC3(F)COC3)c(Cl)c2)nn1)c1c(C2CC2)sc2cncn12 [Example 282]
C = CCc1sc2cncn2c1C(O)c1cn(-c2ccc(OCC3CC3)cc2)nn1 (racemic) [Example 54]
D = OC(c1ccc(-c2ccc(C(F)(F)F)cc2)s1)c1c(C2CC2)sc2cncn12 (racemic) [Example 162]
query: Sort the molecules on IC50; start with the lowest figure. Use the labels to give the ranking in the order requested.
result: B, C, A, D

A = CC=Cc1sc2cncn2c1C(O)c1cn(-c2ccc(OC)cc2)nn1 (racemic) [Example 263]
B = C=CCNC(=O)c1ccc(-n2cc(C(O)c3c(CC)sc4cncn34)nn2)cc1 (racemic) [Example 129]
query: Task for the reader: decide whether A or B has the larger IC50. Answer = label.
result: A

----------
Target: Recombinant full-length human IDO1 (Homo sapiens)
Construct: Recombinant full-length human IDO1 with a N-terminal hexahistidine tag; hexahistidine (His6) (N); made in house; host or cells: E. coli
Experiment: IDO1 enzymatic assay (NFK quantified by LCMS)
Format: biochemical
Details: 2 nM enzyme, 5 μM L-tryptophan, pH6.5, 30 minutes pre-incubation at RT; mean values when measured multiple times; read-out: hIDO activity (IC50 in nM)
ATTRIBUTE MEASURED: IC50 (nM)

1. Oc1ccc(-n2cc(C(O)c3c(-c4ccccc4)sc4cncn34)nn2)cc1Cl (racemic) ... 93.9
2. Oc1ccc(-n2cc([C@H](O)c3c(C4CC4)sc4cncn34)nn2)cc1Cl [Example 148a] ... 5.25
3. CC1NS(=O)(=O)c2ccc(-n3cc(C(O)c4c(C5CC5)sc5cncn45)nn3)cc21 (centres unmarked) ... 76.1

A = OC(c1cn(-c2cccc(C(F)(F)F)c2)nn1)c1c(C2CC2)sc2cncn12 (racemic)
B = Oc1cc(F)c(-n2cc(C(O)c3c(C4CC4)sc4cncn34)nn2)cc1F (racemic)
C = COc1cc(C)c(-n2cc(C(O)c3c(C4CC4)sc4cncn34)nn2)c(C)c1 (racemic)
D = CCc1sc2cncn2c1[C@@H](O)c1cn(-c2ccc(NC(=O)OC)cc2)nn1 [Example 49a]
E = CCCC=Cc1sc2cncn2c1C(O)c1cn(-c2ccc(OC)cc2)nn1 (racemic)
query: Give the ascending ranking of the items by reported IC50. Put the labels in the requested order and write them down.
result: D, B, A, C, E

----------
Target: Recombinant full-length human IDO1 (Homo sapiens)
Construct: Recombinant full-length human IDO1 with a N-terminal hexahistidine tag; hexahistidine (His6) (N); made in house; host or cells: E. coli
Test: IDO1 enzymatic assay (NFK quantified by LCMS)
Type: biochemical
Settings: 2 nM enzyme, 5 μM L-tryptophan, pH6.5, 30 minutes pre-incubation at RT; mean values when measured multiple times; read-out: hIDO activity (IC50 in nM)
ATTRIBUTE MEASURED: IC50 (nM)

1. Cc1cc(-n2cc(C(O)c3c(C4CC4)sc4cncn34)nn2)ccc1O (racemic) ... 15.8
2. C=C(C)c1sc2cncn2c1C(O)c1cn(-c2ccc(OCC3(F)COC3)c(Cl)c2)nn1 (racemic) ... 34.8
3. CCc1sc2cncn2c1C(O)c1cn(-c2ccc(S(=O)(=O)N3CCCC3)cc2)nn1 (racemic) ... 139
4. COc1ccc(-n2nnc(C(O)c3c([C@@H]4C[C@H]4F)sc4cncn34)c2F)cc1 (relative stereo) ... 23

P = OC(c1cccc(-c2ccccc2)c1)c1c(C2CC2)sc2cncn12 (racemic)
Q = COc1ccc(-n2nnc(C(O)c3c(C4CC4)sc4cncn34)c2C(C)(C)C)cc1 (racemic)
R = C=C(C)c1sc2cncn2c1C(O)c1cn(-c2ccc(OCCCO)c(Cl)c2)nn1 (racemic)
query: I would appreciate it if you could sort these 3 compounds by IC50, starting from the smallest number. Lab note: record answer as labels in requested order.
result: R, Q, P
(R: 25.1 nM, Q: 36 nM, P: 2320 nM)

----------
# IC50 annotations
Biological target: Recombinant human TDO comprising amino acids 19-407 (Homo sapiens, UniProt P48775)
Construct: Recombinant human TDO comprising amino acids 19-407 with a N-terminal hexahistidine tag; hexahistidine (His6) (N); made in house; host or cells: E. coli
Sequence (P48775 19-406 limits assumed): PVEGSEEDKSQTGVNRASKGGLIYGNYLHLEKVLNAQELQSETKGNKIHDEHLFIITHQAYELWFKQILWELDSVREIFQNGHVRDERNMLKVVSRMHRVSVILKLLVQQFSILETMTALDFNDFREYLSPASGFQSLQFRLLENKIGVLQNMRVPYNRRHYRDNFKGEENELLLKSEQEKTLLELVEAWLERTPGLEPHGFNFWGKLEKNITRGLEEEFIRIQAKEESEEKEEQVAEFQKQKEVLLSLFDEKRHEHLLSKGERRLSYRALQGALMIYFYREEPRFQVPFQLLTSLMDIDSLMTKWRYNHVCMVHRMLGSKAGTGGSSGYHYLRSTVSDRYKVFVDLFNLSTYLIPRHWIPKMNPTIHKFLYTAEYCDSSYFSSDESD
Assay: TDO2 enzymatic assay (NFK quantified by LCMS)
Type: biochemical
Details: 15 nM enzyme, 200 μM L-tryptophan, pH7, 30 minutes pre-incubation at RT; mean values when measured multiple times; read-out: hTDO activity (IC50 in nM)

query: Recorded IC50 for Oc1ccc(-n2cc([C@H](O)c3c(C4CC4)sc4cncn34)nn2)cc1Cl [Example 148a] with Recombinant human TDO comprising amino acids 19-407 (Homo sapiens, UniProt P48775), please?
result: 4440 nM

query: Can you look up IC50 on Recombinant human TDO comprising amino acids 19-407 (Homo sapiens, UniProt P48775) for COCc1ccc(-n2cc(C(O)c3c(C4CC4)sc4cncn34)nn2)cc1 (racemic) [Example 330] ?
result: > 10200 nM

query: Fill in the recorded IC50 for this molecule, with Recombinant human TDO comprising amino acids 19-407 (Homo sapiens, UniProt P48775) as test system: CS(=O)(=O)CCOc1ccc(-n2cc(C(O)c3c(C4CC4)sc4cncn34)nn2)cc1 (racemic) [Example 205]
result: > 10200 nM

query: # returns recorded IC50 (system: Recombinant human TDO comprising amino acids 19-407 (Homo sapiens, UniProt P48775)) for CCc1sc2cncn2c1C(O)c1cn(-c2ccc(C(=O)NCCO)cc2)nn1 (racemic) [Example 118]
result: 9550 nM

query: Lab request: please report IC50 under test system Recombinant human TDO comprising amino acids 19-407 (Homo sapiens, UniProt P48775) for CCNS(=O)(=O)c1ccc(-n2cc(C(O)c3c(CC)sc4cncn34)nn2)cc1 (racemic) [Example 244]
result: > 10200 nM

query: Give IC50 (Recombinant human TDO comprising amino acids 19-407 (Homo sapiens, UniProt P48775)) of the following molecule: CCOc1ccc(-n2cc(C(O)c3c(C)sc4cncn34)nn2)cn1 (racemic) [Example 55]
result: > 10200 nM

query: Field: IC50 (Recombinant human TDO comprising amino acids 19-407 (Homo sapiens, UniProt P48775)). Entry: COc1cccc(-n2cc(C(O)c3c(C4CC4)sc4cncn34)nn2)c1 (racemic) [Example 8]
result: > 10200 nM

----------
Molecular target: Recombinant full-length human IDO1 (Homo sapiens, UniProt P14902)
Construct: Recombinant full-length human IDO1 with a N-terminal hexahistidine tag; hexahistidine (His6) (N); made in house; host or cells: E. coli
Assay: IDO1 enzymatic assay (NFK quantified by LCMS)
Type: biochemical
Details: 2 nM enzyme, 5 μM L-tryptophan, pH6.5, 30 minutes pre-incubation at RT; mean values when measured multiple times; read-out: hIDO activity (IC50 in nM)
ATTRIBUTE MEASURED: IC50 (nM)

1. OC(c1cn(-c2ccccc2C(F)(F)F)nn1)c1c(C2CC2)sc2cncn12 (racemic) [Example 29] ... 163
2. Cn1nncc1-c1ccc(C(O)c2c(C3CC3)sc3cncn23)s1 (racemic) [Example 174] ... 279
3. O[C@@H](c1cn(-c2ccc(OCC3CC3)cc2)nn1)c1c(C2CC2)sc2cncn12 [Example 35a] ... 9.7
4. N#Cc1ccccc1-c1ccc(C(O)c2c(C3CC3)sc3cncn23)s1 (racemic) [Example 172] ... 272
5. OC(c1ncc(-c2ccccc2)s1)c1c(C2CC2)sc2cncn12 (racemic) [Example 171] ... 578

A = Oc1cc(Cl)ccc1-n1cc(C(O)c2c(C3CC3)sc3cncn23)nn1 (racemic) [Example 221]
B = CNS(=O)(=O)Nc1ccc(-n2cc(C(O)c3c(C4CC4)sc4cncn34)nn2)cc1 (racemic) [Example 256]
C = CCc1sc2cncn2c1C(O)c1cn(-c2ccc(C(=O)NCCOC)cc2)nn1 (racemic) [Example 196]
D = Oc1ccc(-n2cc(C(O)c3c(C4CC4)sc4cncn34)nn2)cc1 (racemic) [Example 68]
E = CC(C)(C)OC(=O)Nc1ccc(-n2cc(C(O)c3c(C4CC4)sc4cncn34)nn2)c(F)c1 (racemic) [Example 151]
query: Ordering criterion: IC50; begin with the maximum. Sort and list the labels as requested.
result: A, E, B, C, D
(A: 90.2 nM, E: 55.8 nM, B: 26.3 nM, C: 17.1 nM, D: 8.08 nM)

I = OC(c1cn(-c2cccc3ncccc23)nn1)c1c(C2CC2)sc2cncn12 (racemic) [Example 24]
II = NS(=O)(=O)CCCOc1ccc(-n2cc(C(O)c3c(C4CC4)sc4cncn34)nn2)cc1 (racemic) [Example 206]
query: # min-compare on IC50 between I and II Answer = label.
result: II

A = O=C(NC1CC1)c1ccc(-n2cc(C(O)c3c(C4CC4)sc4cncn34)nn2)cc1 (racemic) [Example 105]
B = Oc1ccc(-n2cc(C(O)c3c(C4CC4)sc4cncn34)nn2)c(C(F)(F)F)c1 (racemic) [Example 214]
query: Given the listed records, identify the one among A and B with higher IC50. # respond with the chosen item's label
result: B
(B: 127 nM, A: 22.1 nM)

1 = CC(C)(CO)COc1ccc(-n2cc(C(O)c3c(C4CC4)sc4cncn34)nn2)cc1 (racemic) [Example 141]
2 = COc1ncc(-n2cc(C(O)c3c(C4CC4)sc4cncn34)nn2)cc1F (racemic) [Example 79]
query: Please tell me which of the two, 1 or 2 , has the higher reported IC50 value. Refer to your chosen entry by its label in the reply.
result: 1
(1: 27.2 nM, 2: 7.22 nM)

a = CCc1sc2cncn2c1C(O)c1cn(-c2cc(Cl)c(OC)cc2F)nn1 (racemic) [Example 319]
b = COc1ccc(-n2nnc(C(O)c3c(C4CC4)sc4cncn34)c2C(C)C)cc1 (racemic) [Example 280]
query: Could you tell me which of these two has the smaller IC50 figure? First: a Second: b Give the chosen item's label as your response.
result: a
(a: 3.18 nM, b: 53.2 nM)

I = OC(c1cn(-c2ccc(C(F)(F)F)cc2)nn1)c1c(C2CC2)sc2cncn12 (racemic) [Example 6]
II = Oc1cc(-n2cc(C(O)c3c(C4CC4)sc4cncn34)nn2)cc(C(F)(F)F)c1 (racemic) [Example 219]
III = Oc1ccc(-n2cc(C(O)c3c(C4CC4)sc4cncn34)nn2)c(OC(F)(F)F)c1 (racemic) [Example 213]
IV = Cc1ccc(-n2cc(C(O)c3c(C4CC4)sc4cncn34)nn2)cc1 (racemic) [Example 4]
V = OC(c1cn(-c2ccc3cc[nH]c3c2)nn1)c1c(C2CC2)sc2cncn12 (racemic) [Example 21]
query: With regard to IC50, arrange the entries in ascending order, please. List the labels in the requested order.
result: V, IV, II, I, III

A = OC(c1cn(-c2ccccn2)nn1)c1c(C2CC2)sc2cncn12 (racemic) [Example 14]
B = CN(C)C(=O)c1ccc(-n2cc(C(O)c3c(C4CC4)sc4cncn34)nn2)cc1 (racemic) [Example 195]
C = NC(=O)Nc1ccc(-n2cc(C(O)c3c(C4CC4)sc4cncn34)nn2)cc1 (racemic) [Example 109]
query: In this exercise, place the 3 compounds in ascending sequence of their recorded IC50. Write the labels in rank order as requested.
result: C, A, B

1 = Cn1nccc1-c1ccc(C(O)c2c(C3CC3)sc3cncn23)s1 (racemic) [Example 169]
2 = OCCCOc1ccc(-n2cc([C@H](O)c3c(C4CC4)sc4cncn34)nn2)cc1Cl [Example 275]
3 = COc1ccc(-n2cc(C(O)c3c(C4CC4)sc4cncn34)nn2)cc1Br (racemic) [Example 290]
4 = COc1ccc(-n2cc(C(O)c3c(C4CC4)sc4cncn34)nn2)cn1 (racemic) [Example 69]
query: Rank ascending by IC50. Thanks in advance for listing the labels in the requested order.
result: 2, 3, 4, 1
